Biological target: T1, Bicoid DBD-GST (Bcd) (UniProt P09081 83-170)
T1 sequence: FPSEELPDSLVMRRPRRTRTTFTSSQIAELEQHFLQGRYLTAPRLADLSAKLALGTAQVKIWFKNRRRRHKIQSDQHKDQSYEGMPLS
Assay: competitive fluorescence anisotropy (HiP-FA); mean of replicates 133.924, 123.07; HiP-FA: 33 mM phosphate pH 7.0, 90 mM NaCl, 0.01% Tween 20, 0.1 mM DTT, 0.5% agarose; conventional titration and EMSA: 20 mM Tris-acetate pH 7.0, 50 nM (sic) NaCl, 0.01% Tween-20, 0.1 mM DTT
Conditions: protein: recombinant; tags: N-terminal GST; blunt, G:G mismatch at position 6
pKd: −log10 of the molar value.
quantity kind: pKd

* Bcd competitor 18 (A6T) (dsDNA) DNA 1: TCGACGGTATTCCCTA DNA 2: TAGGGAATACGGTCGA | 6.89
